This listing pairs sequences with measured % Glucose Lowering Compared to Vehicle.
Tested on: NIH/Swiss female mice
Test: OGTT DOA (oral glucose tolerance test for duration of action)
Type: in vivo, mouse
Settings: 25 nmol/kg IP at t=-1 day; glucose gavage 1.5 g/kg at t=0; blood glucose at 30 min; 24 hours post dose
Write it as a number; the unit % goes unstated.

Please review the following examples before continuing.
sequenceData	% Glucose Lowering Compared to Vehicle / %
HGEGTFTSDLSKQLEEEAVRLFIEWLKQGGPSKEIISGGSLAEAKVLANRELDKYGVSDFYKRLINKAKTVEGVEALKLHILAALP [Cmpd 33]	−19
HGEGTFTSDLSKQMEEEAVRLFIEWLKNTGGGGSASLAEAKVLANRELDKYGVSDFYKRLINKAKTVEGVEALKLHILAALP [Cmpd 10]	−22
HGEGTFTSDLSKQLEEEAVRLFIEWLKQGGPSKEIISTGGGGSGGGSGGGSGGGSASLAEAKVLANRELDKYGVSDFYKRLINKAKTVEGVEALKLHILAALP [Cmpd 8]	−21

Could you now consider this next sequence?
**Q:** Query % Glucose Lowering Compared to Vehicle on NIH/Swiss female mice for HGEGTFTSDLSKQLEEEAVRLFIEWLKQGGPSKEIISTGGGGSASLAEAKVLANRELDKYGVSDFYKRLINKAKTVEGVEALKLHILAALP [Cmpd 15]
**A:** −21

Provenance of the data: patent US9593154B2
